Target: endothelin receptors
Assay: Radioligand binding assay: [^125 I]ET-1 binding in porcine kidney membrane
Settings: membranes from inner medulla of porcine kidney; [^125 I]ET-1 16 pM; 60 minutes at 23° C.; read-out: Effect on specific binding of [^125 I]ET-1 in porcine kidney membrane, IC50
Recorded Metric: IC50 (nM)
Supply the numeric figure in nM, leaving out any unit text.

Data request: Quick one: IC50 for CC(C)C[C@@H](C(=O)N[C@H](Cc1cccc2ccccc12)C(=O)N[C@@H](C(=O)O)C(C)C)N(CCN(C)Cc1cccnc1)C(=O)Cc1ccccc1Cl ?
Data returned: 68

Taken from patent US5888972A.
